- System: Z-12 endometriotic epithelial cells
- assay_method_text: Cell viability (MTS) assay in Z-12 cells
- Assay type: cell-based, human
- experimental_conditions: cell proliferation after 3 days, MTS; read-out: Z-12 Cells (Endometriosis) (IC50 in μM), cell proliferation

{"compound": "C#C[C@]1(O)CC[C@H]2[C@@H]3CCc4cc(OC)c(N5CCN(C(=O)[C@@H]6CCCN6C(=O)c6ccc7ccccc7n6)CC5)cc4[C@H]3CC[C@@]21C [RM-581, reference compound]", "unit_name": "µM", "IC50": 1.5}

---

- measured_on: 17β-HSD1 (Homo sapiens)
- Construct: endogenous in cells; host or cells: T-47D human breast cancer cells (ATCC), whole cells
- Sequence (P14061 whole entry): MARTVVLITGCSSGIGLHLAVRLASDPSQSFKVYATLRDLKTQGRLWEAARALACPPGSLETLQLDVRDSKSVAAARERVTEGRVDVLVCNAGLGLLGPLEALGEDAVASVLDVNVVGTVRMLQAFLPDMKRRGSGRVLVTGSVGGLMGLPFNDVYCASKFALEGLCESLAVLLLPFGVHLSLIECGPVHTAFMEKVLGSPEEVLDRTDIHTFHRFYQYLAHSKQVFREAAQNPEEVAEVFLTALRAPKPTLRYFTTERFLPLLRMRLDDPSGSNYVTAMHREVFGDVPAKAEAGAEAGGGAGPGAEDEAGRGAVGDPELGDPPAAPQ
- assay_method_text: 17β-HSD1 inhibition assay: transformation of [3H]-E1 to [3H]-E2 in whole T-47D cells
- Type: cell-based
- experimental_conditions: T47D

{"substance_smiles": "C[C@]12CC[C@@H]3c4ccc(Oc5cccc(C(N)=O)c5)cc4CC[C@H]3[C@@H]1CC[C@@H]2O", "measured_on": "17β-HSD1 (Homo sapiens)", "unit_name": "%", "inhibition at 1 µM": 48.6}
{"substance_smiles": "C[C@]12CC[C@@H]3c4ccc(Oc5cccc(C(N)=O)c5)cc4CC[C@H]3[C@@H]1C[C@@H](CCCBr)[C@@H]2O", "measured_on": "17β-HSD1 (Homo sapiens)", "unit_name": "%", "inhibition at 1 µM": 37}
{"substance_smiles": "C[C@]12CC[C@@H]3c4ccc(Oc5cccc(C(N)=O)c5)cc4CC[C@H]3[C@@H]1CCC2=O", "measured_on": "17β-HSD1 (Homo sapiens)", "unit_name": "%", "inhibition at 1 µM": 70.7}

// data source = paper PMC9862175
